Target: T1, human Proprotein Convertase Subtilisin-like/Kexin type 9 (human, UniProt Q8NBP7 31-692, limits assumed)
T1 construct: Biotinylated in the ELISAs; unlabelled analyte in BLI and SPR; also called human PCSK9; PCSK9
T1 sequence (Q8NBP7 31-692 limits assumed): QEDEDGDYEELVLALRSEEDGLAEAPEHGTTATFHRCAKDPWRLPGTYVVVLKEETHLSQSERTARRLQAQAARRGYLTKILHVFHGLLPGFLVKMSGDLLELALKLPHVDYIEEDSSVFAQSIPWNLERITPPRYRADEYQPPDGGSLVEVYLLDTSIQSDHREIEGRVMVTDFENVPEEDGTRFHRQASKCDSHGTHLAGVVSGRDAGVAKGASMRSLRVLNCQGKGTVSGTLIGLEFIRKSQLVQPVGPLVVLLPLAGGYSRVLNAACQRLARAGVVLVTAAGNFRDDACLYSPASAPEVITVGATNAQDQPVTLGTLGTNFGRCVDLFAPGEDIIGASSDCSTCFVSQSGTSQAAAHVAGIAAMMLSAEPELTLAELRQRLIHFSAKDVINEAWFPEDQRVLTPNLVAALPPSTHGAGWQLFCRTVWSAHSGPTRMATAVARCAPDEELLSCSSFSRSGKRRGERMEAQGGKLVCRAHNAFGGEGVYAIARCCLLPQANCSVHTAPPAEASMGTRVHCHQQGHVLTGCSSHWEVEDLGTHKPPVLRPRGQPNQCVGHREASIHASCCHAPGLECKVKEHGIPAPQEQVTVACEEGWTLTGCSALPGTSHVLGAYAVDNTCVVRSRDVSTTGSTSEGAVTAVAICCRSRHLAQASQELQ
Assay: BLI (Octet QK), biotinylated antibody on streptavidin sensors, human PCSK9 in solution, 1:1 fit
Method: Binding affinities of monoclonal antibodies for PCSK9 were estimated using Bio-Layer Interferometry (BLI) on the Octet QK (ForteBio). Biotinylated antibody was immobilized at different densities to the surface of Streptavidin (SA) Biosensors. A dilution series of human PCSK9 prepared in 1× Kinetics Buffer (NaCl 0.0138 M; KCl 0.00027 M; 0.1 mg/mL BSA, 0.002% Tween and 0.005% Sodium Azide; pH 7.4, at 25° C.) purchased from the manufacturer (ForteBio) was used to query the antibodies. […]
test_readout: pKd
Would you please state pKd, meaning minus log10 of the concentration in mol/L, as a bare number?

# count of solved cases: 4
Give a short answer stating reported pKd for Ab5 (antibody, human IgG1, kappa, N297A, V domains shown, also called antibody Ab5) VH: QSVEESGGRLVTPGTPLTLTCTVSGFSLSSYAMSWVRQAPGKGLEWIGIISNSGTTYYASWAKGRFTISKTSTTVDLKITSPTTEDTATYFCARGIYWYWRVFNLWGPGTLVTVSS VL: AVLTQTPSPVSAAVGGTVTINCQASQSVYNNLLSWYQQKPGQPPKLLIYDASNLASGVPDRFSGSGSGTQFTLTISGVQCDDAATYYCLGGYDDDADNAFGGGTEVVVKR .
8.50

Output measured pKd for this item: Ab8 (antibody, human IgG1, kappa, N297A, V domains shown, also called antibody Ab8) VH: QEQLVESGGGLVQPEGSLTLTCTASGFSFTSDYYMCWVRQAPGKGLEWIGCISTGDGSTYYASWAKGRFTISKPSSTTVTLQMTRLTAADTATYFCARDRYYSYAYGAYVYASDLWGPGTLVTVSS VL: DIVMTQTPASVSEPVGGTVTINCQASESIRNYLSWYQQKPGQRPKLLIYGASTLASGVPSRFKGSGSGTDFTLTISDLECADAATYYCQSNYGISSRSYVNGFGGGTEVVVKR
9.20

Name the recorded pKd of the item Ab3 (antibody, human IgG1, kappa, N297A, V domains shown, also called antibody Ab3) VH: QSVEESGGRLVTPGGSLTLTCTASGFSLSSYYMSWVRQAPGKGLEWIGIIYPSGSTYYASWAKGRFTISKTSTTVDLKITSPTVEDTATYFCARGGAYATLNLWGPGTLVTVSS VL: AVLTQTPSPVSAAVGGTVTISCQSSQSVYHNNLLSWYQQKPGQPPKLLIYDASKLTSGVSSRFSGSGSGTQFTLTISGVQCDDAATYYCLGGYDDDADNGFGGGTEVVVKR in your answer.
8.23

Query pKd for Ab4 (antibody, human IgG1, kappa, N297A, V domains shown, also called antibody Ab4) VH: QSVEESGGRLVTPGTPLTLTCTVSGIDLSSYAMIWVRQAPEKGLEYIGYIGGIDSTYYASWAKGRFTISKTSTTVDLKMTSPTTEDTATYFCGRWSGTSGYNTIWGPGTLVTVSS VL: DVVMTQTPASVEAAVGGTVTIKCQASQSIYSNLAWYQQKPGQPPKLLIYGASNLASGVSSRFKGSRSGTEYTLTISDLECADAATYYCQCTGGGDSGNTFGGGTEVVVKR
8.22

Turning now to a further record.
Name the recorded pKd of the item Ab6 (antibody, human IgG1, kappa, N297A, V domains shown, also called antibody Ab6) VH: QEQLEESGGDLVKPEGSLTLTCTASGFSFSSNYWICWVRQAPGKGLEWIGCIRDGGGTYYASWAKGRLTISMTSSTTVTLQLNSLTAADTATYFCASDINDGWLGQFNLWGPGTLVTVSS VL: DIVMTQTPASVEVAVGGTVTIKCQASQSISAYLAWYQQKPGQPPKLLIYRAYTLASGVPSRFKGSGSGTQFTLTISDLECADAATYYCQSYYSVTTNTYGNTFGGGTEVVVKR in your answer.
9.27
